Tested on: Fibroblast
method: Multiplex assay against human fibroblast
Assay type: toxicity, cell-based
condition_description: 12 h, 1 µM, compound concentration 1 uM, replicate 1
readout_label: Population Mitotic Cells (%)

# compound_structure, system_tested, uom, reported_measurement
rows = [
    ("CNC(=O)c1nn(C)c2c1C(C)(C)Cc1cnc(Nc3ccc(N4CCN(C)CC4)cc3)nc1-2", "Fibroblast", "%", 25),
    ("Nc1ccc(C(=O)Nc2cccc(-c3nc(N4CCOCC4)c4oc5ncccc5c4n3)c2)cn1", "Fibroblast", "%", 36),
    ("CC(C)(C)c1cnc(CSc2cnc(NC(=O)C3CCNCC3)s2)o1", "Fibroblast", "%", 24),
    ("Cc1cn(-c2cc(NC(=O)c3ccc4c(c3)CN(c3cncnc3)C[C@@H]4C)cc(C(F)(F)F)c2)cn1", "Fibroblast", "%", 18),
]

---

Quick list: Population Tubulin-Different-Phenotype (%) per entry.
Test system: HEK-293T
method: Multiplex assay against HEK293T;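 note: share of the cells with healthy nuclei that show this phenotype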
Assay type: toxicity, cell-based
condition_description: human, 12 h, 10 µM, compound concentration 10 uM, replicate 2
readout_label: Population Tubulin-Different-Phenotype (%)

# compound_structure, uom, reported_measurement
records = [
    ("CN(C)CCOc1ccc(-c2nc(-c3ccncc3)c(-c3ccc4c(c3)CC/C4=N\\O)[nH]2)cc1", "%", 9),
    ("CC(C)N1CCC(C)(C)c2cc(C#Cc3ccc(C(=O)O)cc3)ccc21", "%", 5),
    ("Cl.Cl.NC1(c2ccc(-c3nc4ccn5c(=O)[nH]nc5c4cc3-c3ccccc3)cc2)CCC1", "%", 82),
    ("N#Cc1cnc(Nc2cc(NC[C@H]3CNCCO3)c(C(F)(F)F)cn2)cn1", "%", 16),
    ("Nc1ccc(C(=O)Nc2cccc(-c3nc(N4CCOCC4)c4oc5ncccc5c4n3)c2)cn1", "%", 70),
]

---

Test system: U2OS
method: Multiplex assay against U2OS
Type: toxicity, cell-based
condition_description: human, 12 h, 1 µM, compound concentration 1 uM, replicate 2
readout_label: Population Tubulin-Different-Phenotype (%)

# compound, uom, reported_measurement
records = [
    ("Cl.Cl.Nc1ncnc2c1c(-c1cccc(OCc3ccccc3)c1)cn2[C@H]1C[C@@H](CN2CCC2)C1", "%", 52),
    ("c1ccc2oc(-c3csc(C4CCN(Cc5nc6ncccc6[nH]5)CC4)n3)cc2c1", "%", 15),
    ("CNc1oc(-c2cccc3ccccc23)nc1C#N", "%", 7),
    ("CN(C)CCOc1ccc(-c2nc(-c3ccncc3)c(-c3ccc4c(c3)CC/C4=N\\O)[nH]2)cc1 [SB590885]", "%", 51),
    ("Nc1nc2c(c(N3CCNCC3)n1)CCC1=C2[C@@H]2CCCC[C@@H]2O1", "%", 21),
    ("O=C(O)c1ccc2cc(-c3ccc(O)c(C45CC6CC(CC(C6)C4)C5)c3)ccc2c1 [O-DEMETHYLATED ADAPALENE]", "%", 16),
    ("CN(C)C/C=C/C(=O)Nc1cc2c(Nc3ccc(F)c(Cl)c3)ncnc2cc1O[C@H]1CCOC1.O=C(O)/C=C\\C(=O)O.O=C(O)/C=C\\C(=O)O [AFATINIB DIMALEATE]", "%", 24),
    ("CC(C)(C)c1cnc(CSc2cnc(NC(=O)C3CCNCC3)s2)o1 [BMS-387032]", "%", 37),
    ("CC(C)Oc1ccc(C(=O)N[C@H](CNC(=O)CN(C)C)Cc2ccc(-c3cn4cccc([C@H](C)O)c4n3)cc2)cc1Cl [GSK-923295A]", "%", 19),
    ("CCCn1c(=O)c2[nH]c(C34CC5CC(CC3C5)C4)nc2n(CCC)c1=O [ROLOFYLLINE]", "%", 20),
    ("CCOc1cc(N2CCC(O)CC2)ccc1Nc1ncc2c(n1)N(C1CCCC1)CCC(=O)N2C", "%", 17),
    ("CCn1c(-c2nonc2N)nc2cnc(Oc3cccc(NC(=O)c4ccc(OCCN5CCOCC5)cc4)c3)cc21 [GSK-269962A]", "%", 14),
    ("CNC(=O)c1cc(Oc2ccc(NC(=O)Nc3cc(C(C)(C)C)nn3-c3ccc4ncccc4c3)c(F)c2)ccn1 [REBASTINIB]", "%", 35),
    ("N#Cc1cnc(Nc2cc(NC[C@H]3CNCCO3)c(C(F)(F)F)cn2)cn1 [SRA-737]", "%", 30),
    ("CCOc1cc2ncc(C#N)c(Nc3ccc(OCc4cccc(F)c4)c(Cl)c3)c2cc1NC(=O)/C=C/CN(C)C [HKI-357]", "%", 21),
    ("CNC(=O)c1nn(C)c2c1C(C)(C)Cc1cnc(Nc3ccc(N4CCN(C)CC4)cc3)nc1-2 [MILCICLIB]", "%", 90),
]
